Test system: Malme-3M
assayProcedure: NCI tumour cell line growth inhibition, 48 h
Active and inactive are the calls of the source. Cut-off read from the data, not from the text of the source: active = GI50 up to about 1.1 µM and inactive = higher.
Documented GI50 across a set of compounds

C=CC(=O)Nc1ccc(NC(=O)C=C)c2c1C(=O)c1ccccc1C2=O yielded GI50 of > 100 µM (inactive)

COc1ccc(OC)c2c(C(=O)O)c(Cc3ccccc3)ccc12 yielded GI50 of > 100 µM (inactive)

CCOC(=O)C1Cc2[nH]c3ccccc3c2C(C)C1C (stereo not drawn) yielded GI50 of 16.9 µM (inactive)

Cc1cc(S(=O)(=O)Nc2nc(N)n(-c3cnc4ccccc4n3)n2)c(S)cc1Cl yielded GI50 of > 100 µM (inactive)

CC(C)(C)OC(=O)NC(CSCc1ccc(C(=O)c2ccccc2)cc1)C(=O)N1CCN(CCCCN2c3ccccc3Sc3cc(N=[N+]=[N-])ccc32)CC1 (stereo not drawn) yielded GI50 of > 100 µM (inactive)

CC1C(c2ccccc2)=CCON1c1ccccc1 (stereo not drawn) yielded GI50 of > 100 µM (inactive)

COC(=O)C1CN=CN1CCc1ccccc1 (stereo not drawn) yielded GI50 of > 100 µM (inactive)

CC(Br)CN1CCOCC1 (stereo not drawn) yielded GI50 of > 100 µM (inactive)

O=[N+]([O-])c1cc([N+](=O)[O-])c(/C=C/c2ccc(Cl)c(Cl)c2)cc1/C=C/c1ccc(Cl)c(Cl)c1 yielded GI50 of 25.2 µM (inactive)

Cn1ccc2c(c1=O)C(=O)OC2(C)C [CERPEGIN] yielded GI50 of 65.6 µM (inactive)

CCOC(=O)CNC(=O)c1nc[nH]c1/N=N/N(C)C yielded GI50 of > 100 µM (inactive)

CN(C)CN(C)c1nc(N(C)C)nc(N(C)C)n1 yielded GI50 of > 100 µM (inactive)

CC(=O)Nc1ccc(N2C(=O)/C(=C\c3cccc(Oc4ccccc4)c3)S(=O)(=O)C2c2ccccc2)cc1 (stereo not drawn) yielded GI50 of > 100 µM (inactive)

O=C(CC/C(CC(=O)c1ccc(Br)cc1)=N\O)Nc1ccc(Cl)c(Cl)c1 yielded GI50 of > 100 µM (inactive)

###

System: T47D
assayProcedure: NCI tumour cell line growth inhibition, 48 h
Active and inactive are the calls of the source. Rule as the data show it: active = GI50 up to about 1.1 µM and inactive = higher.
Hello, when you answer, please use one of the following outcomes: active, inactive

Solved entries:
* [N-]=[N+]=Nc1ccc2c(c1)Sc1ccccc1N2CCCCN1CCN(C(=O)CCNC(=O)Cc2ccc(C(=O)c3ccccc3)cc2)CC1 | inactive
* O=C1Nc2ccc(Cl)cc2C(=O)N2CCC[C@@H]12 | inactive
* CN(C)C(=O)CO/N=C1/C(=C2/C(=O)Nc3ccccc32)Nc2ccccc21 | inactive
* O=C(c1ccccc1)N1CCC(Nc2cccnc2)O1 (stereo not drawn) | inactive
* Cn1c(-c2cccs2)cc(-c2cccs2)c1-c1ccsc1 | inactive

Q. Assay result, entry Cc1cc(S(=O)(=O)Nc2nc(N)n(-c3cnc4ccccc4n3)n2)c(S)cc1Cl — outcome?
A. inactive

Q. Assay result, entry Cn1ccnc1Oc1ccc(Cl)cc1 — outcome?
A. inactive

Q. Assay result, entry CCOC(=O)COc1c(OC)cc(C2C3=C(COC3=O)Oc3cc4c(cc32)OCO4)cc1OC (stereo not drawn) — outcome?
A. inactive

Q. Assay result, entry CCCCCCCCCCCCP(=O)(O)OCC(N)C(=O)O (stereo not drawn) — outcome?
A. inactive

Q. Assay result, entry C=CCOc1ccc(C2C(C(=O)OCC)C(=O)CC(C)(O)C2C(=O)OCC)cc1OC (stereo not drawn) — outcome?
A. inactive

Q. Assay result, entry FC(F)(F)c1ccc2c(c1)nc(Cc1ccccc1)n2C[C@@H]1CCCN2CCCCC12 (stereo partly drawn) — outcome?
A. inactive

Q. Assay result, entry Nc1cccc(C2CCCc3c2[nH]c2ccccc32)c1 (stereo not drawn) — outcome?
A. inactive

Q. Assay result, entry CNC(=S)Nc1ccc(OC)c2ccccc12 — outcome?
A. inactive
